- TEST_DETAILS: Mouse liver microsomal stability of compound in microsomal protein, PBS buffer pH 7.4, NADPH, glucose-6-phosphate and glucose-6-phosphate dehydrogenase media. Aliquotes were taken at 5 time points and after stopping the reaction, supernatants were analyzed using HPLC coupled with a tandem mass spectrometer. The elimination constant, half-life, and intrinsic clearance are determined as results using linear regression analysis. The assay has been performed by Enamine biological services, Bienta Ltd.The protocol is publicly available: dx.doi.org/10.17504/protocols.io.5qpvokdb9l4o/v1
- Format: ADME, microsomes, Microsome
- CONDITION_INFO: liver microsomes
Assign microsomal CLint to each entry below.
Just the number in µL/min/mg, nothing appended.

Reported microsomal CLint for CC(C)[C@@H](Nc1ncnc2[nH]ccc12)c1ccc2c(c1)S(=O)(=O)CCO2 was 69

Looking up O=C(Nc1cccc2c(C(=O)N[C@@H]3c4ccccc4C[C@@H]3C(=O)O)c[nH]c12)NC1CC1 , I see its microsomal CLint listed as 4

Data point: CNC(=O)c1cc2c(N[C@@H](c3ccc4c(c3)S(=O)(=O)CCC4)C(C)C)ncnc2[nH]1 ; microsomal CLint = 46

Recorded microsomal CLint (molecule C[C@@H](C(=O)O)[C@@H](NC(=O)c1ncnc2[nH]ccc12)c1ccc(Br)cc1 ): 4

Measured microsomal CLint of CC(C)[C@@H](Nc1ncnc2[nH]c(-c3cnn(C)c3C#N)cc12)c1ccc2c(n1)NC(=O)CO2 : 145

* * *

- TEST_DETAILS: Mouse liver microsomal stability of compound in microsomal protein, PBS buffer pH 7.4, NADPH, glucose-6-phosphate and glucose-6-phosphate dehydrogenase media. Aliquotes were taken at 5 time points and after stopping the reaction, supernatants were analyzed using HPLC coupled with a tandem mass spectrometer. The elimination constant, half-life, and intrinsic clearance are determined as results using linear regression analysis. The assay has been performed by Enamine biological services, Bienta Ltd.The protocol is publicly available: dx.doi.org/10.17504/protocols.io.5qpvokdb9l4o/v1
- Type: ADME, microsomes, Microsome
- CONDITION_INFO: microsomes
Assign Remaining (without cofactor) to each entry below.
Unit % implied. Number only.

The molecule CC(C)[C@H](Nc1ncnc2[nH]c(C(=O)N[C@@H]3CCN(C)C3)cc12)c1ccc2c(c1)S(=O)(=O)CCC2 showed Remaining (without cofactor) equal to 107

Input CNC(=O)Cn1cc(-c2cc3c(N[C@H](c4ccc5c(c4)S(=O)(=O)CCC5)C(C)C)ncnc3[nH]2)cn1 . Output Remaining (without cofactor): 96

Noted for CC(C)[C@@H](Nc1ncnc2[nH]c(-c3ccc4cncn4c3)cc12)c1ccc2c(c1)S(=O)(=O)CCC2 : its Remaining (without cofactor) reads 87

Quick note, Remaining (without cofactor) for CNCc1cc(-c2cc3c(N[C@@H](c4ccc5c(c4)S(=O)(=O)NCC5)C(C)C)ncnc3[nH]2)co1 landed at 95

Recorded result, CC(C)[C@@H](Nc1ncnc2[nH]ccc12)c1ccc2c(c1)S(=O)(=O)CCO2 , Remaining (without cofactor): 111

Input CC(C)[C@H](Nc1ncnc2[nH]c(-c3cnn(CC(=O)N(C)C)c3)cc12)c1ccc2c(c1)OCCO2 . Output Remaining (without cofactor): 102

Value of measured Remaining (without cofactor) for the entry COc1ccc([C@@H](Cc2nnn[nH]2)NC(=O)c2ncnc3[nH]ccc23)cc1 : 93

Measured Remaining (without cofactor), CC(C)[C@@H](Nc1ncnc2[nH]c(-c3cnn(CCC(N)=O)c3)cc12)c1ccc2c(c1)OCCO2 : 106

So for COc1ccc([C@H](Cc2nnn[nH]2)NC(=O)c2ncnc3[nH]ccc23)cc1 , the logged Remaining (without cofactor) turned out to be 100.411

Record COCCNC(=O)c1c[nH]c2ncnc(N[C@@H](c3ccc4c(c3)S(=O)(=O)CCC4)C(C)C)c12 , field Remaining (without cofactor): 99

Given item CC(C)[C@@H](Nc1ncnc(N)c1Cl)c1ccc2c(c1)S(=O)(=O)CCC2 , the value recorded as its Remaining (without cofactor) is 102

Looking up CC(C)[C@H](Nc1ncnc2[nH]cc(C(=O)NC3CC3)c12)c1ccc2c(c1)S(=O)(=O)CCC2 , I see its Remaining (without cofactor) listed as 102

Remaining (without cofactor) recorded for this molecule, CCNC(=O)c1cc2c(N[C@H](c3ccc4c(c3)OCCO4)C(C)C)ncnc2[nH]1 , is 94

// field: Remaining (without cofactor); key: CC(C)[C@H](Nc1ncnc2[nH]c(-c3cnn(CC(N)=O)c3)cc12)c1ccc2c(c1)S(=O)(=O)CCC2 ; value = 98

Note to self: Remaining (without cofactor) recorded for CC(C)[C@@H](Nc1ncnc2[nH]c(-c3cnn(CC(N)=O)c3)cc12)c1ccc2c(c1)NC(=O)CO2 was 102

// Remaining (without cofactor) lookup, molecule = CNCc1cc(-c2cc3c(N[C@H](c4ccc5c(c4)S(=O)(=O)CCC5)C(C)C)ncnc3[nH]2)co1 , result: 96

response.value for CC(C)[C@@H](Nc1ncnc2[nH]c(C(=O)N[C@@H]3CCN(C)C3)cc12)c1ccc2c(c1)S(=O)(=O)CCC2 (field: Remaining (without cofactor)) = 92

* * *

- TEST_DETAILS: Mouse liver microsomal stability of compound in microsomal protein, PBS buffer pH 7.4, NADPH, glucose-6-phosphate and glucose-6-phosphate dehydrogenase media. Aliquotes were taken at 5 time points and after stopping the reaction, supernatants were analyzed using HPLC coupled with a tandem mass spectrometer. The elimination constant, half-life, and intrinsic clearance are determined as results using linear regression analysis. The assay has been performed by Enamine biological services, Bienta Ltd.The protocol is publicly available: dx.doi.org/10.17504/protocols.io.5qpvokdb9l4o/v1
- Type: ADME, microsomes, Microsome
- CONDITION_INFO: liver microsomes
Exercise: state measured half-life for each of the compounds provided.
Number only, in min; omit the unit.

Value of half-life reported for the compound CNC(=O)c1c[nH]c2ncnc(N[C@@H](c3ccc4c(c3)OCCO4)C(C)C)c12 is 19

Measured half-life of CNC(=O)Cn1cc(-c2cc3c(N[C@@H](c4ccc5c(c4)S(=O)(=O)CCC5)C(C)C)ncnc3[nH]2)cn1 : 21.6

# half-life of CC(C)[C@@H](Nc1ncnc2[nH]ccc12)c1ccc2c(c1)S(=O)(=O)CCO2 = 24.2

For this compound ( Cn1ncc(-c2cc3c(N[C@@H](c4ccc5c(n4)OCCO5)C(C)(C)C)ncnc3[nH]2)c1C#N ), measured half-life is 8

Recorded half-life (compound CC(C)(C)[C@@H](Nc1ncnc2[nH]c(-c3cnn(CC(N)=O)c3)cc12)c1ccc2c(n1)OCCO2 ): 53.1

Entry under test: CCNC(=O)c1cc2c(N[C@@H](c3ccc4c(c3)S(=O)(=O)CCO4)C(C)C)ncnc2[nH]1 . Its half-life was 65.5

So for CNC(=O)c1cc2c(N[C@@H](c3ccc4c(c3)S(=O)(=O)CCC4)C(C)C)ncnc2[nH]1 , the logged half-life turned out to be 36.5

Reported half-life for CNC(=O)c1cccc(-c2cc3c(N[C@H](c4ccc5c(c4)S(=O)(=O)CCC5)C(C)C)ncnc3[nH]2)c1 was 8.5

# compound CC(C)[C@@H](Nc1ncnc2[nH]c(-c3cnn(C)c3C#N)cc12)c1ccc2c(c1)S(=O)(=O)CCC2 ; its half-life = 3.8

Lab note: O=C(Nc1ccccc1)Nc1ccc(C(=O)NC2c3cccc(O)c3CC2C(=O)O)cc1 (stereo not given) gave half-life of 1070

* * *

- TEST_DETAILS: Human liver microsomal stability of compound in microsomal protein, PBS buffer pH 7.4, NADPH, glucose-6-phosphate and glucose-6-phosphate dehydrogenase media. Aliquotes were taken at 5 time points and after stopping the reaction, supernatants were analyzed using HPLC coupled with a tandem mass spectrometer. The elimination constant, half-life, and intrinsic clearance are determined as results using linear regression analysis. The assay has been performed by Enamine biological services, Bienta Ltd.The protocol is publicly available: dx.doi.org/10.17504/protocols.io.5qpvokdb9l4o/v1
- Type: ADME, microsomes, Microsome
- CONDITION_INFO: microsomes
Would you kindly list Remaining (without cofactor) for each of these compounds?
Write the numeric value and follow it with the unit.

Remaining (without cofactor) for CC(C)[C@H](Nc1ncnc2[nH]c(C(=O)N[C@@H]3CCN(C)C3)cc12)c1ccc2c(c1)S(=O)(=O)CCC2 is 100%

compound CC(C)[C@H](Nc1ncnc2[nH]c(-c3cnn(CC(N)=O)c3)cc12)c1ccc2c(n1)OCCO2 , Remaining (without cofactor) observed: 90%

Input CC(C)[C@H](Nc1ncnc2[nH]c(-c3cnn(CC(=O)N(C)C)c3)cc12)c1ccc2c(c1)OCCO2 . Output Remaining (without cofactor): 115%

Memo: CNC(=O)c1cccc(-c2cc3c(N[C@@H](c4ccc5c(c4)S(=O)(=O)CCC5)C(C)C)ncnc3[nH]2)c1 , reported Remaining (without cofactor): 93%

The reported Remaining (without cofactor) of the compound CNC(=O)Cn1cc(-c2cc3c(N[C@@H](c4ccc5c(c4)OCCO5)C(C)C)ncnc3[nH]2)cn1 was 92%

Entry CC(C)[C@H](Nc1ncnc2[nH]c(-c3cnn(C)c3)cc12)c1ccc2c(c1)S(=O)(=O)CCC2 — recorded Remaining (without cofactor) = 95%

// field: Remaining (without cofactor); key: O=C(Nc1cccc2c(C(=O)N[C@@H]3c4ccccc4C[C@@H]3C(=O)O)c[nH]c12)NC1CC1 ; value = 86%

So, Cc1nn(C)cc1-c1cc2c(N[C@H](c3ccc4c(c3)S(=O)(=O)CCC4)C(C)C)ncnc2[nH]1 ? Its Remaining (without cofactor) was 113%

Remaining (without cofactor) recorded for this compound, CC(C)[C@@H](Nc1ncnc2[nH]c(-c3cnn(C)c3)cc12)c1ccc2c(c1)S(=O)(=O)NCC2 , is 98%

// field: Remaining (without cofactor); key: CC(C)[C@H](Nc1ncnc2[nH]ccc12)c1ccc2c(c1)S(=O)(=O)CCC2 ; value = 92%

Remaining (without cofactor) reading for CC(C)(C)[C@H](Nc1ncnc2[nH]c(-c3cnn(CC(N)=O)c3)cc12)c1ccc2c(n1)OCCO2 : 95%

For CC(C)[C@@H](Nc1ncnc2[nH]c(-c3cnn(CC(N)=O)c3)cc12)c1ccc2c(n1)OCCO2 the compound record lists Remaining (without cofactor) as 95%

// recorded Remaining (without cofactor) for CC(C)[C@H](Nc1ncnc2[nH]cc(C(=O)NC3CC3)c12)c1ccc2c(c1)S(=O)(=O)CCC2 : 112%

Notebook: CC(C)[C@H](Nc1ncnc2[nH]c(-c3cnn(C)c3C#N)cc12)c1ccc2c(n1)NC(=O)CO2 , Remaining (without cofactor) read as 92%

The reported value for CCNC(=O)c1cc2c(N[C@H](c3ccc4c(c3)OCCO4)C(C)C)ncnc2[nH]1 in terms of Remaining (without cofactor) is 100%

Reported Remaining (without cofactor) of CC(C)[C@@H](Nc1ncnc(N)c1Cl)c1ccc2c(c1)S(=O)(=O)CCC2 : 101%

Sample CC(C)[C@@H](Nc1ncnc2[nH]c(-c3cncc(S(C)(=O)=O)c3)cc12)c1ccc2c(c1)S(=O)(=O)CCC2 ; Remaining (without cofactor) observed: 104%
